System: LXRb:RXRa (NR concentration 270 nM, RXRa partner concentration 90 nM)
protocolSummary: PBM binding z-score (relative to random genomic background probes); higher = stronger binding; sequences stand for … in GC…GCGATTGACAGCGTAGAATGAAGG
Each entry below carries its reported PBM binding z-score.

| itemSequence | PBM binding z-score |
| --- | --- |
| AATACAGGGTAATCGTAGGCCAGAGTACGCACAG | 0.309 |
| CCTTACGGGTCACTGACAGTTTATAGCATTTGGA | 3.4 |
| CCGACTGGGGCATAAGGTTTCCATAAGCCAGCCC | -0.536 |
| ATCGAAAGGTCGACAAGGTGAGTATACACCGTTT | 3 |
| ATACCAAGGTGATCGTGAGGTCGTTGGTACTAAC | 0.769 |
| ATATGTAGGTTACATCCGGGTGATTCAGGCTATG | 1.64 |
| GCCAGCAGGCCATTTGGGTCACTCAATGACGGGC | -0.289 |
| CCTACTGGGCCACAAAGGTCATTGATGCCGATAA | 4.39 |
| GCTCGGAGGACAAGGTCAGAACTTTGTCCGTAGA | 1.31 |
| GCTAGCAGGCAATTTGGGTCACTCAATGACGGGC | 0.171 |
| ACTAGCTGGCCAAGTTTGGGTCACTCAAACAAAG | 0.339 |
| TCTAGTTAGTCACGGAGGTCACACACGACGGGTA | 3.3 |
